# Test system: F1*sub RNA substrate (template-directed ligation)
# Assay protocol: fraction ligated after 30 min (ligated reads / total reads); higher = more ligase activity; sequences stand for … in GAGACCGCAACTGAAAAGTTGT…AGTTCTGCACGTAGAAGCAAAAGGC
# Cond: 42 °C
Endpoint name: fraction ligated
Give only the figure.

See these solved cases before continuing.
TATCACTGTGTAAGACACTTTGGATGGGTTG [3d1357] :: 0.843
TATCACTTGTCGTAGACCTTTGGATGGTTGA [3d2025] :: 0.344

As a next step, examine the sequence that follows.
**Query** Missing value: fraction ligated, F1*sub RNA substrate (template-directed ligation), entry TATCACTTGTCGTAGACCTTTGATGGGTTGA [3d2022] . Fill in?
**Result** 0.759

Origin of values: the supplement of paper PMC6755084
